- target_or_test_system: hOX1R (Homo sapiens, UniProt O43613)
- assay_protocol: FLIPR Ca2+ flux assay, hOX1R
- Type: cell-based
- conditions_used: CHO cells; agonist 70 pM Ala-6,12 orexin-A; rat orexin-1 receptor; read-out: hOX1R FLIPR IC50
Assignment: determine reported IC50 for the given molecules.
Give bare numbers, in µM.

Completed entries (count: 2):
Cc1oc([C@@H]2CC[C@@H](C)N(C(=O)c3ccsc3-c3ncccn3)C2)nc1C(C)(C)O = 1.36
COC(=O)c1nc([C@@H]2CC[C@@H](C)N(C(=O)c3ccccc3-n3nccn3)C2)oc1Br = 0.875

Consider Cc1cc(C(=O)N2C[C@H](c3nc(C(C)(C)O)c(C)o3)CC[C@H]2C)c(-n2nccn2)s1 . Its measured IC50 is 1.19

====

- target_or_test_system: hOX1R (Homo sapiens, UniProt O43613)
- assay_protocol: FLIPR Ca2+ flux assay, hOX1R
- Assay type: cell-based
- conditions_used: CHO cells; agonist 70 pM Ala-6,12 orexin-A; rat orexin-1 receptor; read-out: hOX1R FLIPR IC50
Record form. Attribute: pIC50. Fill in for each entry.
One number for each entry, as −log10 of the molar value.

Worked set:
COCc1nc([C@@H]2CC[C@@H](C)N(C(=O)c3ccccc3-n3nccn3)C2)oc1-c1ccccc1 [Example 59] = 7.00
Cc1oc([C@@H]2CC[C@@H](C)N(C(=O)c3ccccc3-n3nccn3)C2)nc1[C@@H](O)C(F)(F)F [Example 18] = 6.38
Cc1oc([C@@H]2CC[C@@H](C)N(C(=O)c3ccccc3OC(F)(F)F)C2)nc1C(C)(C)O [Example 28] = 5.85
Cc1oc([C@@H]2CC[C@@H](C)N(C(=O)c3ccccc3C3(C#N)CC3)C2)nc1C(C)(C)O [Example 20] = 6.37
CC[C@@](C)(O)c1nc([C@@H]2CC[C@@H](C)N(C(=O)c3cscc3-n3nccn3)C2)oc1C [Example 47] = 5.01

Each of the following entries comes with a recorded value; kindly state pIC50 for each.
1. COC(=O)Cc1nc([C@@H]2CC[C@@H](C)N(C(=O)c3ccccc3-n3nccn3)C2)oc1-c1ccccc1 [Example 67]
2. C[C@@H]1CC[C@@H](c2nc(CCF)c(-c3ccccc3)o2)CN1C(=O)c1ccccc1-n1nccn1 [Example 71]
3. Cc1oc([C@@H]2CC[C@@H](C)N(C(=O)c3ccccc3OC(C)C)C2)nc1C(C)(C)O [Example 29]
4. C[C@@H]1CC[C@@H](c2nc(C(C)(C)O)c(-c3ccccc3)o2)CN1C(=O)c1ccccc1-n1nccn1 [Example 60]
5. Cc1oc([C@@H]2CC[C@@H](C)N(C(=O)c3ccccc3-n3ncnn3)C2)nc1C(C)(C)O [Example 24]
6. C[C@@H]1CC[C@@H](c2nc(-c3ccccc3)c(-c3ccccc3)o2)CN1C(=O)c1ccccc1-n1nccn1 [Example 77]
7. C[C@@H]1CC[C@@H](c2ncc(C3CC3)o2)CN1C(=O)c1ccccc1-n1nccn1 [Example 76]
8. Cc1oc([C@@H]2CC[C@@H](C)N(C(=O)c3ccccc3-n3nccn3)C2)nc1[C@H](O)C(F)(F)F [Example 19]

-- reply
7.03
7.15
5.70
7.12
5.42
6.35
6.01
6.10

Batch: pIC50 for all items listed.
1. CC[C@](C)(O)c1nc([C@@H]2CC[C@@H](C)N(C(=O)c3cscc3-n3nccn3)C2)oc1C [Example 46]
2. Cc1cccc(-c2coc([C@@H]3CC[C@@H](C)N(C(=O)c4ccccc4-n4nccn4)C3)n2)c1 [Example 7]
3. COC(=O)c1nc([C@@H]2CC[C@@H](C)N(C(=O)c3ccccc3-n3nccn3)C2)oc1-c1ccccc1 [Example 56]
4. C[C@@H]1CC[C@@H](c2nc(C(C)(C)O)c(Cl)o2)CN1C(=O)c1ccccc1-n1nccn1 [Example 52]
5. CC[C@@](C)(O)c1nc([C@@H]2CC[C@@H](C)N(C(=O)c3ccccc3-n3nccn3)C2)oc1C [Example 44]
6. C[C@@H]1CC[C@@H](c2nc(C(C)(C)O)c(C3CC3)o2)CN1C(=O)c1ccccc1-n1nccn1 [Example 14]
7. C[C@@H]1CC[C@@H](c2nc(C(N)=O)c(-c3ccccc3)o2)CN1C(=O)c1ccccc1-n1nccn1 [Example 61]

-- reply
1. 5.33
2. 6.59
3. 6.44
4. 5.50
5. 6.10
6. 7.68
7. 7.19

====

Please provide measured pIC50 for the entries that follow.
- target_or_test_system: human orexin-2 receptor (Homo sapiens (Human), UniProt O43614)
- Sequence (O43614 whole entry): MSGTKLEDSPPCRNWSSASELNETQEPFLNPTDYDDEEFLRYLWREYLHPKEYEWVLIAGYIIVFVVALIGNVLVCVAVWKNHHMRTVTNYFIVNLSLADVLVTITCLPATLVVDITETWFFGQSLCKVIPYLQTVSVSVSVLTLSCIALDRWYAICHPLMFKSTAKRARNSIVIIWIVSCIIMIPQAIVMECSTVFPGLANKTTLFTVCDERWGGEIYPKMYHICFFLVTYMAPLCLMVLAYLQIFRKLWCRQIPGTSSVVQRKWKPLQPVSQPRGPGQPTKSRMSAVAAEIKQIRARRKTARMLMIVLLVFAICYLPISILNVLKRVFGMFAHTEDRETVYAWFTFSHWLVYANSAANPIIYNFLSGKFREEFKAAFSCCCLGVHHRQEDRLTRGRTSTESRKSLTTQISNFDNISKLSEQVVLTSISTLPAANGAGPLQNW
- assay_protocol: FLIPR Ca2+ flux assay, hOX2R
- conditions_used: CHO cells expressing human orexin-2 receptor; agonist 70 pM Ala-6,12 orexin-A
One number for each entry, as −log10 of the molar value.

COc1ccccc1C(=O)N1C[C@H](c2nc(C(C)(C)O)c(C)o2)CC[C@H]1C [Example 31] = 7.10

Hi team, please reply with pIC50 for each item in this list.
1. C[C@@H]1CC[C@@H](c2nc(Br)co2)CN1C(=O)c1ccccc1-n1nccn1 [Example 1]
2. CC(O)c1nc([C@@H]2CC[C@@H](C)N(C(=O)c3ccccc3-n3nccn3)C2)oc1-c1ccccc1 (single isomer, unassigned) [Example 64]
3. C[C@@H]1CC[C@@H](c2nc(C(C)(C)O)c(-c3ccccc3)o2)CN1C(=O)c1ccccc1-n1nccn1 [Example 60]

-- reply
6.86
7.12
7.08

====

For each entry below, report its IC50 value.
- target_or_test_system: hOX1R (Homo sapiens, UniProt O43613)
- assay_protocol: FLIPR Ca2+ flux assay, hOX1R
- Type: cell-based
- conditions_used: CHO cells; agonist 70 pM Ala-6,12 orexin-A; rat orexin-1 receptor; read-out: hOX1R FLIPR IC50

# annotated cases, reported IC50 shown
Cc1oc([C@@H]2CC[C@@H](C)N(C(=O)c3cccc4ccnn34)C2)nc1C(C)(C)O [Example 23] = > 10 µM
Cc1oc([C@@H]2CC[C@@H](C)N(C(=O)c3cccnc3OC(C)C)C2)nc1C(C)(C)O [Example 40] = > 10 µM
Cc1oc([C@@H]2CC[C@@H](C)N(C(=O)c3nc(Cl)sc3C(C)C)C2)nc1C(C)(C)O [Example 32] = > 10 µM
Cc1oc([C@@H]2CC[C@@H](C)N(C(=O)c3cnsc3-n3nccn3)C2)nc1C(C)(C)O [Example 42] = > 10 µM

Consider the additional compound presented here.
Noted IC50 for Cc1oc([C@@H]2CC[C@@H](C)N(C(=O)c3cccnc3OCC(F)F)C2)nc1C(C)(C)O [Example 38] , tested on hOX1R (Homo sapiens, UniProt O43613): ~6.4 µM

Source listed as patent US9828368B2.
